Note to self: these molecules have IC50 reported for Proto-oncogene tyrosine-protein kinase Src (Gallus gallus, UniProt P00523) in various publications.
measured_quantity: IC50 (µM)

molecule=CCNC(=O)Nc1nc2cc(NCCCN3CCN(C)CC3)ncc2cc1-c1c(Cl)cccc1Cl relation_qualifier== measured_number=0.019
molecule=CCNC(=O)Nc1nc2nc(NCCCN3CCN(C)CC3)ncc2cc1-c1cc(OC)cc(OC)c1 relation_qualifier== measured_number=35
molecule=COc1cc(OC)cc(-c2cc3cnc(NCCCN4CCOCC4)cc3nc2NC(=O)NC(C)(C)C)c1 relation_qualifier=> measured_number=50
molecule="COc1cc(OC)cc(C2Cc3cnc(N(CCCOCc4ccccc4)C(C)=O)cc3N=C2NC(=O)NC(C)(C)C)c1 (centres undefined)" relation_qualifier=> measured_number=50
molecule=CCN(CC)CCCNc1ncc2cc(-c3c(Cl)cccc3Cl)c(NC(=O)CC(C)(C)C)nc2n1 relation_qualifier== measured_number=19
molecule=C=CC(=O)Nc1ccc2ncnc(Nc3ccc(C(C)C)cc3)c2c1 relation_qualifier=> measured_number=27
molecule=COc1cc(OC)cc(-c2cc3cnc(N(CCCCCO)C(C)=O)cc3nc2NC(=O)NC(C)(C)C)c1 relation_qualifier=> measured_number=50
molecule=Nc1ncc2cc(-c3c(Br)cccc3Br)c(N)nc2n1 relation_qualifier== measured_number=1.6
molecule=CCN(CC)CCCCNc1ncc2cc(-c3c(Cl)cccc3Cl)c(NC(=O)NC(C)(C)C)nc2n1 relation_qualifier== measured_number=0.0074

----------
From various publications: pIC50 for UniProtKB P00523.
pIC50: −log10 of the molar value.
measured_quantity: pIC50

chem_smiles=CN1CCN(CCCNc2ncc3cc(-c4c(Cl)cccc4Cl)c(NC(=O)Nc4ccc(C(F)(F)F)cc4)nc3n2)CC1 target_entity="UniProtKB P00523" measured_quantity=pIC50 relation_qualifier== measured_number=6.72
chem_smiles=CN1CCN(CCC(=O)Nc2ccc3ncnc(Nc4ccc(NC(=O)Nc5cc(C(C)(C)C)nn5-c5cccc(N)c5)cc4)c3c2)CC1 target_entity="UniProtKB P00523" measured_quantity=pIC50 relation_qualifier== measured_number=8.96
chem_smiles=CCOc1ccc2cc(-c3nn(CC4CCN(C(C)C)CC4)c4ncnc(N)c34)ccc2c1 target_entity="UniProtKB P00523" measured_quantity=pIC50 relation_qualifier=< measured_number=5.00
chem_smiles=CCN(CC)CCCNc1ncc2cc(-c3c(Cl)cccc3Cl)c(/N=C\N(C)C)nc2n1 target_entity="UniProtKB P00523" measured_quantity=pIC50 relation_qualifier== measured_number=5.40
chem_smiles=Cn1c(=O)c(-c2c(Cl)cccc2Cl)cc2cnc(Nc3ccncc3)nc21 target_entity="UniProtKB P00523" measured_quantity=pIC50 relation_qualifier== measured_number=8.00
chem_smiles=COc1ccc(Nc2ncc3cc(-c4c(Cl)cccc4Cl)c(=O)n(C)c3n2)cn1 target_entity="UniProtKB P00523" measured_quantity=pIC50 relation_qualifier== measured_number=7.11
chem_smiles=CN1CCC(Cn2nc(-c3ccc4cc(OC5CCC5)ccc4c3)c3c(N)ncnc32)CC1 target_entity="UniProtKB P00523" measured_quantity=pIC50 relation_qualifier=< measured_number=5.00
chem_smiles=C=CC(=O)Nc1ccc2ncnc(Nc3ccc(-c4ccccc4)cc3)c2c1 target_entity="UniProtKB P00523" measured_quantity=pIC50 relation_qualifier=< measured_number=4.57
chem_smiles=CNc1ncc2cc(-c3c(Cl)cccc3Cl)c(=O)n(C)c2n1 target_entity="UniProtKB P00523" measured_quantity=pIC50 relation_qualifier== measured_number=6.12

----------
The entries that follow carry IC50 values tested on Proto-oncogene tyrosine-protein kinase Src (Gallus gallus), drawn from several published reports.
measured_quantity: IC50 (nM)

compound=COc1cc(OC)cc(-c2cc3cnc(NCCCCCO)cc3nc2NC(=O)NC(C)(C)C)c1 target_entity="Proto-oncogene tyrosine-protein kinase Src (Gallus gallus)" relation_qualifier=> measured_number=50000
compound=Cc1cc(C)c(C)c(-c2cc3cnc(N)nc3nc2N)c1C target_entity="Proto-oncogene tyrosine-protein kinase Src (Gallus gallus)" relation_qualifier=> measured_number=50000
compound=CCN(CC)CCCNc1ncc2cc(-c3c(Cl)cccc3Cl)c(N)nc2n1 target_entity="Proto-oncogene tyrosine-protein kinase Src (Gallus gallus)" relation_qualifier== measured_number=750
compound=CN1CCN(CCCNc2ncc3cc(-c4c(Cl)cccc4Cl)c(NC(=O)NCCNC(=O)OC(C)(C)C)nc3n2)CC1 target_entity="Proto-oncogene tyrosine-protein kinase Src (Gallus gallus)" relation_qualifier== measured_number=150
compound=CN1CCN(CCCNc2cc3nc(N)c(-c4ccccc4)cc3cn2)CC1 target_entity="Proto-oncogene tyrosine-protein kinase Src (Gallus gallus)" relation_qualifier== measured_number=1600
compound=CC(C)(C)NC(=O)Nc1nc2nc(NCCCN3CCOCC3)ncc2cc1-c1c(Cl)cccc1Cl target_entity="Proto-oncogene tyrosine-protein kinase Src (Gallus gallus)" relation_qualifier== measured_number=100
compound=CCn1c(=O)c(-c2c(Cl)cccc2Cl)cc2cnc(Nc3ccccc3)nc21 target_entity="Proto-oncogene tyrosine-protein kinase Src (Gallus gallus)" relation_qualifier== measured_number=53
compound=COc1cc(OC)cc(-c2cc3cnc(NCCCCCN4CCOCC4)cc3nc2NC(=O)NC(C)(C)C)c1 target_entity="Proto-oncogene tyrosine-protein kinase Src (Gallus gallus)" relation_qualifier== measured_number=16000
compound=CCOc1ccc2cc(-c3nn(CC4CN(C)C4)c4ncnc(N)c34)ccc2c1 target_entity="Proto-oncogene tyrosine-protein kinase Src (Gallus gallus)" relation_qualifier=> measured_number=10000
compound=CCN(CC)CCCCNc1cc2nc(N)c(-c3cc(OC)cc(OC)c3)cc2cn1 target_entity="Proto-oncogene tyrosine-protein kinase Src (Gallus gallus)" relation_qualifier== measured_number=26000
compound=COc1cc(OC)cc(-c2cc3cnc(NCCCCCOc4ccccc4)cc3nc2NC(=O)NC(C)(C)C)c1 target_entity="Proto-oncogene tyrosine-protein kinase Src (Gallus gallus)" relation_qualifier=> measured_number=50000
compound=CCNC(=O)Nc1nc2nc(NCCCCN(CC)CC)ncc2cc1-c1cc(OC)cc(OC)c1 target_entity="Proto-oncogene tyrosine-protein kinase Src (Gallus gallus)" relation_qualifier== measured_number=22000
compound=C=CC(=O)Nc1ccc2ncnc(Nc3ccccc3)c2c1 target_entity="Proto-oncogene tyrosine-protein kinase Src (Gallus gallus)" relation_qualifier=> measured_number=27000
compound=COc1cc(OC)cc(-c2cc3cnc(N(CCCCOCc4ccccc4)C(C)=O)cc3nc2NC(=O)NC(C)(C)C)c1 target_entity="Proto-oncogene tyrosine-protein kinase Src (Gallus gallus)" relation_qualifier=> measured_number=50000
compound=CCOC(=O)c1ccc(Nc2ncc3cc(-c4c(Cl)cccc4Cl)c(=O)n(C)c3n2)cc1 target_entity="Proto-oncogene tyrosine-protein kinase Src (Gallus gallus)" relation_qualifier== measured_number=80
compound="COc1cc(OC)cc(C2Cc3cnc(N(CCCCO)C(C)=O)cc3N=C2NC(=O)NC(C)(C)C)c1 (stereo not given)" target_entity="Proto-oncogene tyrosine-protein kinase Src (Gallus gallus)" relation_qualifier=> measured_number=50000
compound=COc1ccc(Nc2ncc3cc(-c4c(Cl)cccc4Cl)c(=O)n(C)c3n2)cc1C target_entity="Proto-oncogene tyrosine-protein kinase Src (Gallus gallus)" relation_qualifier== measured_number=50
compound=CC(C)(C)c1cc(NC(=O)Nc2cccc(Nc3ncnc4ccccc34)c2)n(-c2cccc(N)c2)n1 target_entity="Proto-oncogene tyrosine-protein kinase Src (Gallus gallus)" relation_qualifier== measured_number=304
compound=CCNC(=O)Nc1nc2nc(NCCCN3CCN(C)CC3)ncc2cc1-c1c(Cl)cccc1Cl target_entity="Proto-oncogene tyrosine-protein kinase Src (Gallus gallus)" relation_qualifier== measured_number=24
compound=CCN(CC)CCCNc1ncc2cc(-c3c(Br)cccc3Br)c(N)nc2n1 target_entity="Proto-oncogene tyrosine-protein kinase Src (Gallus gallus)" relation_qualifier== measured_number=760

----------
Collected IC50 for UniProtKB P00523 across several studies; compounds listed below.
measured_quantity: IC50 (nM)

chem_smiles=CCC(=O)Nc1ccc2ncnc(Nc3ccc(C(C)(C)C)cc3)c2c1 target_entity="UniProtKB P00523" measured_quantity=IC50 unit_spec=nM relation_qualifier=> measured_number=27000
chem_smiles=CCOc1cc(OCC)cc(-c2cc3cnc(N)nc3nc2NC(=O)NC(C)(C)C)c1 target_entity="UniProtKB P00523" measured_quantity=IC50 unit_spec=nM relation_qualifier=> measured_number=50000
chem_smiles=COc1cc(OC)cc(-c2cc3cnc(NCCCO)cc3nc2NC(=O)NC(C)(C)C)c1 target_entity="UniProtKB P00523" measured_quantity=IC50 unit_spec=nM relation_qualifier=> measured_number=50000
chem_smiles=CCN(CC)CCCNc1ncc2cc(-c3c(Br)cccc3Br)c(NC(=O)NC(C)(C)C)nc2n1 target_entity="UniProtKB P00523" measured_quantity=IC50 unit_spec=nM relation_qualifier== measured_number=97
chem_smiles=CC(C)NC(=O)Nc1nc2nc(NCCCN3CCN(C)CC3)ncc2cc1-c1c(Cl)cccc1Cl target_entity="UniProtKB P00523" measured_quantity=IC50 unit_spec=nM relation_qualifier== measured_number=19
chem_smiles=CN(C)CCCNc1ncc2cc(-c3c(Cl)cccc3Cl)c(NC(=O)NC(C)(C)C)nc2n1 target_entity="UniProtKB P00523" measured_quantity=IC50 unit_spec=nM relation_qualifier== measured_number=120
chem_smiles=CC(C)(C)NC(=O)Nc1nc2nc(N)ncc2cc1-c1c(Cl)cccc1Cl target_entity="UniProtKB P00523" measured_quantity=IC50 unit_spec=nM relation_qualifier== measured_number=220
chem_smiles=CN(C)CCCC(=O)Nc1ccc2ncnc(Nc3ccc(NC(=O)Nc4cc(C(C)(C)C)nn4-c4cccc(N)c4)cc3)c2c1 target_entity="UniProtKB P00523" measured_quantity=IC50 unit_spec=nM relation_qualifier== measured_number=1.1
chem_smiles=CC(C)(C)NC(=O)Nc1nc2nc(N)ncc2cc1-c1cc(C(F)(F)F)cc(C(F)(F)F)c1 target_entity="UniProtKB P00523" measured_quantity=IC50 unit_spec=nM relation_qualifier=> measured_number=50000
chem_smiles=CN1CCN(CCCNc2cc3nc(NCCCN4CCN(C)CC4)c(-c4ccccc4)cc3cn2)CC1 target_entity="UniProtKB P00523" measured_quantity=IC50 unit_spec=nM relation_qualifier== measured_number=6800
chem_smiles=CN1CCN(CCCNc2ncc3cc(-c4c(Cl)cccc4Cl)c(NC(=O)CC(C)(C)C)nc3n2)CC1 target_entity="UniProtKB P00523" measured_quantity=IC50 unit_spec=nM relation_qualifier== measured_number=8400
chem_smiles=CN1CCN(CCCNc2ncc3cc(-c4c(Cl)cccc4Cl)c(NC(N)=O)nc3n2)CC1 target_entity="UniProtKB P00523" measured_quantity=IC50 unit_spec=nM relation_qualifier== measured_number=61
chem_smiles=Cn1c(=O)c(-c2c(Cl)cccc2Cl)cc2cncnc21 target_entity="UniProtKB P00523" measured_quantity=IC50 unit_spec=nM relation_qualifier=> measured_number=10000
chem_smiles=COc1ccccc1Nc1ncc2cc(-c3c(Cl)cccc3Cl)c(=O)n(C)c2n1 target_entity="UniProtKB P00523" measured_quantity=IC50 unit_spec=nM relation_qualifier== measured_number=1200
chem_smiles=CCNC(=O)Nc1nc2cc(NCCCCN(CC)CC)ncc2cc1-c1c(Cl)cccc1Cl target_entity="UniProtKB P00523" measured_quantity=IC50 unit_spec=nM relation_qualifier== measured_number=14
